# target of assay: c-Myc/Max/Ebox DNA (Homo sapiens, UniProt P01106)
# Sequence (P01106 16-454): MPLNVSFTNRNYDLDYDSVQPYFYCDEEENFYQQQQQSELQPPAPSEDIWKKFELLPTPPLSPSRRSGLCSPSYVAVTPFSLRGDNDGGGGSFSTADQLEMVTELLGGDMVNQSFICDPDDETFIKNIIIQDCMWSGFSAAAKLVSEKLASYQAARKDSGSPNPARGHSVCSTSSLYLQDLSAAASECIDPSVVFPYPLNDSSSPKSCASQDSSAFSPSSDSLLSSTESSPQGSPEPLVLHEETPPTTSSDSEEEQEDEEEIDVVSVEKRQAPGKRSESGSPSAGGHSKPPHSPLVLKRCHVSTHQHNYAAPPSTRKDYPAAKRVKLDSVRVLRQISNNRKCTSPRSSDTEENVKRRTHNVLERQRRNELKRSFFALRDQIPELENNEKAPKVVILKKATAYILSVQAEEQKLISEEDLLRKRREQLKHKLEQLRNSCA
# test summary: c-Myc/Max/Ebox DNA AlphaScreen assay
# Type: binding
# Set-up: An exemplary assay uses full-length human c-Myc and Max proteins; his6 (cleaved yes); made in house
# test context: c-Myc/Max/Ebox DNA AlphaScreen; NA: inactive under assay conditions; read-out: Biochemical IC50
# Method: This protocol was used to generate the biochemical data in Table 2 and FIG. 11. The primary AlphaScreen assay is amenable to 384-well and 1536-well plate formats for HTS. […] Assays are performed with minor modifications from the manufacturer's protocol (PerkinElmer). […] Excitation was at 680 nm for donor bead release of singlet oxygen and emission was read with a bandpass filter from 520-620 nm. […]
pIC50: −log10 of the molar value.
Respond with TRUE for pIC50 values of 4 and above, FALSE for values below.

Reported pIC50 reaches at least 4 for Cc1ccc(C)n1-c1ccc(C(=O)O)cc1 [Compound 3] ?
FALSE

Reported pIC50 reaches at least 4 for Cc1ccc(C)n1-c1cc(C(=O)N2CCOCC2)ccc1C(=O)O [Compound 75] ?
TRUE

Reported pIC50 reaches at least 4 for COc1cc(C(=O)O)c(-n2c(C)ccc2C)cc1OC [Compound 37] ?
TRUE

====

# target of assay: c-Myc/Max/Ebox DNA (Homo sapiens)
# test summary: c-Myc/Max/Ebox DNA AlphaScreen assay
# Type: binding
# Set-up: An exemplary assay uses full-length human c-Myc and Max proteins; his6 (cleaved yes); made in house
# test context: c-Myc/Max/Ebox DNA AlphaScreen; NA: inactive under assay conditions; read-out: Biochemical IC50
So I've got a bunch of molecules here, and I need their IC50 values.
Numeric only. Scale: µM

Quick one: IC50 of `COc1ncc(/C=N/NC(=O)c2ccc(C(=O)O)c(-n3c(C)ccc3C)c2)c(OC)n1` ?
7.67

Quick one: IC50 of CC(=O)Nc1ccc(-n2c(C)ccc2C)c(C(=O)O)c1 [Compound 40] ?
34.4

Quick one: IC50 of Cc1ccc(C)n1-c1cc(C(=O)N/N=C/c2ccccc2)ccc1C(=O)O [Compound 71] ?
103

Quick one: IC50 of `CCOC(=O)c1ccc(-n2c(CCC(=O)O)ccc2-c2ccc(OC)cc2)cc1O` ?
116

Quick one: IC50 of `Cc1cc(C)c2c(=O)c(/C=N/NC(=O)c3ccc(C(=O)O)c(-n4c(C)ccc4C)c3)coc2c1` ?
5.55

Quick one: IC50 of `Cc1cc2c(n1-c1ccc(C(=O)O)cc1)CCCCC2` ?
51.8

Quick one: IC50 of `Cc1ccc(C)n1-c1cc(C(=O)N/N=C\c2cc(F)c(C(=O)O)c(F)c2)ccc1C(=O)O` ?
0.48

Quick one: IC50 of `CC(=O)c1cc(C)n(-c2ccc(C(=O)O)cc2)c1C` ?
166

Quick one: IC50 of `Cc1ccc(C)n1-c1cc(C(=O)O)ccc1O` ?
34.1

Quick one: IC50 of `Cc1ccc(C)n1-c1cc(C(=O)NNC(=O)c2cccc(C(=O)O)c2)ccc1C(=O)O` ?
1.89

Quick one: IC50 of `Cc1ccc(C)n1-c1cnccc1C(=O)O` ?
6800

Quick one: IC50 of `Cc1ccc(C)n1-c1cc(Cl)ccc1C(=O)O` ?
63.7

Quick one: IC50 of `Cc1ccc(C)n1-c1cc(C(=O)N/N=C/c2c[nH]c3ccc(F)cc23)ccc1C(=O)O` ?
23.3

Quick one: IC50 of `Cc1c(-c2ccccc2)c2c(n1-c1ccc(C(=O)O)cc1)CCCC2` ?
42

Quick one: IC50 of `CCCC(=O)Nc1ccc(N2CCCCCC2)cc1C(=O)O` ?
172

Quick one: IC50 of `Cc1ccc(C)n1-c1cccc(C(=O)c2ccccc2)c1C(=O)O` ?
94.7

====

So I've got a bunch of compounds here, and I need their IC50 values.
# target of assay: c-Myc/Max/Ebox DNA (Homo sapiens, UniProt P01106)
# test summary: c-Myc/Max/Ebox DNA AlphaScreen assay
# Type: binding
# Parameters: An exemplary assay uses full-length human c-Myc and Max proteins; his6 (cleaved yes); made in house
# test context: class symbols; NA: not active under assay conditions; read-out: Myc/Max IC50

Quick one: IC50 of Cc1ccc(C)n1-c1ccccc1-c1nnn[nH]1 [Compound 162] ?
≥ 100 µM

Quick one: IC50 of Cc1ncc(CO)c(/C=N/NC(=O)c2ccc(C(=O)O)c(-n3c(C)ccc3C)c2)c1O [Compound 80] ?
1 to 10 µM

Quick one: IC50 of Cc1ccc(C)n1-c1cc(C(=O)N2CCN(c3cccc(O)c3)CC2)ccc1C(=O)O [Compound 182] ?
1 to 10 µM

Quick one: IC50 of Cc1ccc(C)n1-c1cccnc1C(=O)O [Compound 181] ?
1 to 10 µM

Quick one: IC50 of Cc1ccc(C)n1-c1cc(C(=O)N2CCN(c3cccnc3)CC2)ccc1C(=O)O [Compound 194] ?
≥ 100 µM

Quick one: IC50 of Cc1ccc(C)n1-c1cc(C(=O)N2CCCC(c3ccc(C(=O)O)cc3)C2)ccc1C(=O)O (stereo not shown) [Compound 209] ?
10 to 100 µM

Quick one: IC50 of COc1cccc([C@H]2CN(C(=O)c3ccc(C(=O)O)c(-n4c(C)ccc4C)c3)C[C@@H]2O)c1 [Compound 225] ?
≥ 100 µM

====

# System: MM1S cells
# test summary: Cell viability assay (ATPlite), MM1S
# Assay type: cell-based, human
# test context: Homo sapiens, MM1.S, 72 h, cell viability, three days, ATPlite; NA: inactive under assay conditions
So I've got a bunch of compounds here, and I need their EC50 values.
Units required after the number.

Identify the measured EC50 of `Cc1ccc(C)n1-c1cc(C(=O)N/N=C/c2cc(F)ccc2C(F)(F)F)ccc1C(=O)O` for MM1S cells.
4260 µM

Identify the measured EC50 of `Cc1ccc(C)n1-c1cnccc1C(=O)O` for MM1S cells.
305 µM

Identify the measured EC50 of `COC(=O)c1ccc(-n2cccc2)cc1O` for MM1S cells.
127 µM

Identify the measured EC50 of `CCCOC(=O)c1ccc(-n2c(CCC(=O)O)ccc2-c2ccccc2)cc1O` for MM1S cells.
75.3 µM

Identify the measured EC50 of `CC(=O)OCOC(=O)c1ccccc1-n1ccnc1C` for MM1S cells.
156 µM

Identify the measured EC50 of `CCOC(=O)c1ccc(-n2c(CCC(=O)O)ccc2-c2cccs2)cc1O` for MM1S cells.
71.7 µM

Identify the measured EC50 of `CC(=O)OCOC(=O)c1ccc(C(=O)N/N=C/c2ccc(S(=O)(=O)O)o2)cc1-n1c(C)ccc1C` for MM1S cells.
9.25 µM

Identify the measured EC50 of `Cc1ccc(C)n1-c1cc(C(=O)N/N=C/c2c(Cl)ncnc2Cl)ccc1C(=O)O` for MM1S cells.
8080 µM

Identify the measured EC50 of `Cc1cccc(Nc2ccccc2C(=O)O)c1C` for MM1S cells.
185 µM

Identify the measured EC50 of `Cc1ccc(C)n1-c1cc(C(=O)N/N=C/c2cc(C(F)(F)F)cc(C(F)(F)F)c2)ccc1C(=O)O` for MM1S cells.
5170 µM

Identify the measured EC50 of `Cc1ccc(C)n1-c1ccccc1C(N)=O` for MM1S cells.
450 µM

Identify the measured EC50 of `COc1cc(C(=O)OCOC(C)=O)c(-n2c(C)ccc2C)cc1OC` for MM1S cells.
211 µM

Identify the measured EC50 of `Cc1ccc(C)n1-c1ccc(C(=O)O)c([N+](=O)[O-])c1` for MM1S cells.
98.5 µM

Identify the measured EC50 of `CC(=O)Nc1ccc(-n2c(C)ccc2C)c(C(=O)O)c1` for MM1S cells.
222 µM

Identify the measured EC50 of `Cc1c(C)c(C)n(-c2ccc(C(=O)O)c(O)c2)c1C` for MM1S cells.
329 µM

Identify the measured EC50 of `Cc1cc(C)c2c(=O)c(/C=N/NC(=O)c3ccc(C(=O)O)c(-n4c(C)ccc4C)c3)coc2c1` for MM1S cells.
1040 µM

Identify the measured EC50 of `Cc1nccn1-c1ccccc1C(=O)O` for MM1S cells.
11.5 µM

Identify the measured EC50 of `Cc1ccc(C)n1-c1ccccc1-c1nnn[nH]1` for MM1S cells.
66 µM

Identify the measured EC50 of `CC(=O)OCOC(=O)c1ccccc1-n1cccc1` for MM1S cells.
99.1 µM

Identify the measured EC50 of `Cc1cc(Br)c(-n2c(C)ccc2C)c(C(=O)O)c1` for MM1S cells.
300 µM

Identify the measured EC50 of `COC(=O)c1ccccc1-n1c(C)ccc1C` for MM1S cells.
223 µM

Identify the measured EC50 of `CC(=O)OCOC(=O)c1ccc(C(=O)N/N=C/c2ccc(-c3nnn[nH]3)cc2)cc1-n1c(C)ccc1C` for MM1S cells.
9.99 µM

Identify the measured EC50 of `Cc1ccc(C)n1-c1cc(C(=O)N/N=C/c2ccc3c(c2)OCCN3C)ccc1C(=O)O` for MM1S cells.
92.4 µM

Identify the measured EC50 of `Cc1ccc(C)n1-c1cc(C(=O)N/N=C/c2cncnc2)ccc1C(=O)O` for MM1S cells.
263 µM

Identify the measured EC50 of `Cc1ccc(C)n1-c1cc(C(=O)NN)ccc1C(=O)O` for MM1S cells.
1240 µM

Identify the measured EC50 of `CC(=O)OCOC(=O)c1ccc(C(=O)N/N=C/c2ccc3cccnc3n2)cc1-n1c(C)ccc1C` for MM1S cells.
13.6 µM

Identify the measured EC50 of `Cc1ccc(C)n1-c1ccccc1/C=C/C(=O)O` for MM1S cells.
39 µM

Identify the measured EC50 of `Cc1ccc(C)n1-c1cc(C(=O)N/N=C/c2ccc3cccnc3n2)ccc1C(=O)O` for MM1S cells.
118 µM

Identify the measured EC50 of `Cc1ccc(C)n1-c1cc2ccccc2cc1C(=O)O` for MM1S cells.
264 µM
